Kindly state RGA IC50 for each of the entries shown.
# measured on: T1, human ST2L, full length, on cells (human, UniProt Q01638 19-556)
# T1 sequence: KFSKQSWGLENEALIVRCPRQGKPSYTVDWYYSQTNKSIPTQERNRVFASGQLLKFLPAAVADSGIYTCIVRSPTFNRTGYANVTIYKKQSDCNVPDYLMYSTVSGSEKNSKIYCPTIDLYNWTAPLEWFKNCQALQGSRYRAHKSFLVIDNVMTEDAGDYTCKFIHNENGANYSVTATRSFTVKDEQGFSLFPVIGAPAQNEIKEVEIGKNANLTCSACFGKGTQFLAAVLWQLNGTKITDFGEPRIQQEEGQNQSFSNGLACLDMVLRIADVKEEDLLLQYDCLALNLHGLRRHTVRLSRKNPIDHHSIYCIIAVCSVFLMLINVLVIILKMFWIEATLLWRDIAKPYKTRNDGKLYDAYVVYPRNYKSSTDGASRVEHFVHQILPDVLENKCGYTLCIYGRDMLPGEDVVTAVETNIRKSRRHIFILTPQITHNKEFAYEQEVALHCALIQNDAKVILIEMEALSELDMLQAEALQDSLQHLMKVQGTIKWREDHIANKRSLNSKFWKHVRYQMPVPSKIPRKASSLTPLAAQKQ
# protocol text: cell-based or functional assay
Answers are plain numbers, in µg/mL.

Here's what some known entries look like.
*Q* State the recorded RGA IC50 for this entry: STLM228 (antibody, V domains shown, VH STLH201 + VL STLL276) VH: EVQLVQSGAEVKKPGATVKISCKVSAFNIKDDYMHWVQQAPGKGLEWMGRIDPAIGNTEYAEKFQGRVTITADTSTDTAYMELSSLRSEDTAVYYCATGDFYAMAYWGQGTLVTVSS VL: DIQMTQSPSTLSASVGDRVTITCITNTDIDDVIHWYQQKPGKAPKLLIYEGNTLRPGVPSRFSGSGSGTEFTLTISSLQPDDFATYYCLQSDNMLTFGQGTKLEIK
*A* 0.28

*Q* State the recorded RGA IC50 for this entry: STLM227 (antibody, V domains shown, VH STLH201 + VL STLL277) VH: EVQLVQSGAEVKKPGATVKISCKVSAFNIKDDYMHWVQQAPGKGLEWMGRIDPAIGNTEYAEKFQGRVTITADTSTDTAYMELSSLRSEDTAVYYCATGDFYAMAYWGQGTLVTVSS VL: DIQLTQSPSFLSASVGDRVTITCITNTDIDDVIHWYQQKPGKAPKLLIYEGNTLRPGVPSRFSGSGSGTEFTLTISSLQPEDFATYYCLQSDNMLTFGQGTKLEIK
*A* 0.23

Kindly consider the entry below.
*Q* State the recorded RGA IC50 for this entry: STLM229 (antibody, V domains shown, VH STLH201 + VL STLL275) VH: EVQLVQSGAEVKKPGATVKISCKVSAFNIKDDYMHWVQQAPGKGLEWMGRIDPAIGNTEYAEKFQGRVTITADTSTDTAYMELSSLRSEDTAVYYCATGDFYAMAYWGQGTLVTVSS VL: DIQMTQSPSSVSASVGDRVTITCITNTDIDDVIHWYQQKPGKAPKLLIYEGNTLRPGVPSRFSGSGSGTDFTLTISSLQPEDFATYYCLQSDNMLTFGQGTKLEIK
*A* 0.32
